Hello, the source for this data is the kinase profiling compilation of Christmann-Franck et al. (2016), in case you need it.

The molecules listed here are annotated with their residual activity.
target: MAPK1 (human); test: radiometric filter-binding kinase assay; settings: compound 0.01 µM
Quick note: give the figure in %, leave out the unit.

CNc1nc(-c2ccc3c(N)n[nH]c3c2)cc(N2C[C@@H](C(=O)NC3CCCCC3)CC[C@H]2C)n1 ... 117
COc1cc(O)c2c(c1)[C@H]1OC1C[C@H](O)[C@H](O)C(=O)/C=C\C[C@H](C)OC2=O (stereo partly specified) ... 96
O=C(Nc1nc2cc(C(F)(F)F)cc(NC3CC3)n2n1)c1cccnc1 ... 92
COc1ccc(N(C(=O)Nc2c(C)cccc2C)c2cc(Nc3ccc(N4CCN(C)CC4)cc3)ncn2)c(OC)c1 ... 103
CNC(=O)C1[C@H]2O[C@@](C)([C@@H]1N)n1c3ccccc3c3c4c(c5c6ccccc6n2c5c31)C(=O)NC4 (stereo partly specified) ... 22

**Q:** Identify the reported residual activity for the following entry. `C/C(=C1/C(=O)Nc2ccc(NC(N)=O)cc21)c1ccc[nH]1`
**A:** 95

====

target: MAP3K9 (human) (UniProt P80192); assay: radiometric filter-binding kinase assay; details: compound 1.0 µM
Sequence (P80192 whole entry, looked up): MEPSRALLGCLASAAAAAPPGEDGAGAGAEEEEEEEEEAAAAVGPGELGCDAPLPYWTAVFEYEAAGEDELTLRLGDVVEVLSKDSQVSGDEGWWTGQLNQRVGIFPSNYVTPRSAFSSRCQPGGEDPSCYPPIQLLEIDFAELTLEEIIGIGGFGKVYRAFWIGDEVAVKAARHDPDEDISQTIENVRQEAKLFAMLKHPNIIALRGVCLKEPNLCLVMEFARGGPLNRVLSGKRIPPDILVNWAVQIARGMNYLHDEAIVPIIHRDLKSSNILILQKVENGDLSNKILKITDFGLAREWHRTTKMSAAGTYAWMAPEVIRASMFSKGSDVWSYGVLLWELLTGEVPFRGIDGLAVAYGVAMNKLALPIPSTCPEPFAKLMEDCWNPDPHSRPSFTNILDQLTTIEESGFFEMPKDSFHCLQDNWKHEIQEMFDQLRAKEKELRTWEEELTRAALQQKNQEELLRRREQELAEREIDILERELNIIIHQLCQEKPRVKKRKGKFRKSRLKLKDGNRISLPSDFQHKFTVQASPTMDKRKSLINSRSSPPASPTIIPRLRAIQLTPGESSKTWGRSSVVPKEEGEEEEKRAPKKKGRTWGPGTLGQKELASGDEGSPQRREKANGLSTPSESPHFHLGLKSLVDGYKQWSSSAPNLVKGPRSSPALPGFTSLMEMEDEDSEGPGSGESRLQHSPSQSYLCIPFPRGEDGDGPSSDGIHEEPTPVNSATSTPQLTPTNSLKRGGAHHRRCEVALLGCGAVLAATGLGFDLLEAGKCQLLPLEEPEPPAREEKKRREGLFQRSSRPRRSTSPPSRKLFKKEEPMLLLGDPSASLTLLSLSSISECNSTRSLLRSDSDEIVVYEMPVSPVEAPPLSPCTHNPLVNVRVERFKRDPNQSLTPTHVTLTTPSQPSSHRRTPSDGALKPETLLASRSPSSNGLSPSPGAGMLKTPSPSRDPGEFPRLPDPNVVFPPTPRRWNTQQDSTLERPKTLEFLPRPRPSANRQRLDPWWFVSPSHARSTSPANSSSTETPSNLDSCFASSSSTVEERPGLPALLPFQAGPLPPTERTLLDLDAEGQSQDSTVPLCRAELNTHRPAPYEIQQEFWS
quantity measured: residual activity (%)
Quick note: give the figure in %, leave out the unit.

Oc1ccc2ccccc2c1SSc1c(O)ccc2ccccc12 ... 16
COc1cc(O)c2c(c1)/C=C/C[C@H](O)[C@H](O)C(=O)/C=C\C[C@H](C)OC2=O ... 75
O=C(NCCCNc1nc(Nc2cccc(CN3CCOCC3)c2)ncc1C1CC1)C1CCC1 ... 16
O=c1c(O)c(-c2ccc(O)c(O)c2)oc2cc(O)c(O)c(O)c12 ... 100

# input for lookup
**Q:** Identify the reported residual activity for the following entry. `CCn1c(-c2nonc2N)nc2cncc(CNC3CCNCC3)c21`
**A:** 104

====

molecular target: GCK (human) (UniProt Q12851); experiment: radiometric filter-binding kinase assay; settings: compound 0.1 µM
Sequence (Q12851 whole entry, looked up): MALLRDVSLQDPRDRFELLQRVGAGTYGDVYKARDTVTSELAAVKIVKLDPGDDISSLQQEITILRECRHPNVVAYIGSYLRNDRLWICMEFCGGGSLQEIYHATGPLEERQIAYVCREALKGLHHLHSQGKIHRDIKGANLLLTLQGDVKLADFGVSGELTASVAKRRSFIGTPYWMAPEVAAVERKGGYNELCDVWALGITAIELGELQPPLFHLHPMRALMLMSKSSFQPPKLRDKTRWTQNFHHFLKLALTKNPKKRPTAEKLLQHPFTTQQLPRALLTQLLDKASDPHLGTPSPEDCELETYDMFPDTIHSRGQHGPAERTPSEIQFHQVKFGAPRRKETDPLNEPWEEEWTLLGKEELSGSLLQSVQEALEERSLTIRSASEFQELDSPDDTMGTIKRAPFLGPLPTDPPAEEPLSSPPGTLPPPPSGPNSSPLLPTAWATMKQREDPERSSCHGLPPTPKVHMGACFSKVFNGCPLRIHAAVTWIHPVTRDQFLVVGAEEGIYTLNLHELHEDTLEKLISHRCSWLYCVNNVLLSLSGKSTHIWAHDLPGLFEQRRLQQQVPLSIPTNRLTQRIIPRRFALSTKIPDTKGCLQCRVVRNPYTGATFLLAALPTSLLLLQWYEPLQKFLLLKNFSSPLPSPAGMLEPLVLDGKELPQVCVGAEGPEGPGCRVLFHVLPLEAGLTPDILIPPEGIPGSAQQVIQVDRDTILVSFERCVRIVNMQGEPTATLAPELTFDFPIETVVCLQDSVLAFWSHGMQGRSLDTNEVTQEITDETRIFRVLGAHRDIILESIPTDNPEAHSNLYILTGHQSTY
Lab note: compare residual activity with 40%, writing Condition met if less and Condition not met if equal or more.

Recorded results for 3 molecules are shown here.
CN(C)C/C=C/C(=O)Nc1cccc(C(=O)Nc2ccc(Nc3nccc(-c4cccnc4)n3)cc2)c1 ... Condition not met
O=C(N[C@@H](COc1ccc2[nH]c(=O)[nH]c2c1)c1ccccc1)c1cccn(Cc2ccc(F)c(F)c2)c1=O ... Condition not met
CCCCCc1ccc(/C=C/[C@H](O)[C@@H](CO)NC)cc1 ... Condition not met

**Q:** Report whether reported residual activity is lower than 40% (strictly) for `Cc1ccc(Sc2cnc(Nc3cccc(Br)n3)s2)cc1C(=O)N1CCN(C(=O)CN)CC1`
**A:** Condition not met

**Q:** Report whether reported residual activity is lower than 40% (strictly) for CC1=C(CO)C(=O)O[C@@H]([C@@H](C)[C@H]2CC[C@H]3[C@@H]4C[C@H]5O[C@]56[C@@H](O)C=CC(=O)[C@]6(C)C4CC[C@]23C)C1 (some centres undefined)
**A:** Condition not met

====

biological target: DAPK1 (human) (UniProt P53355); experiment: radiometric filter-binding kinase assay; conditions: compound 0.1 µM
Sequence (P53355 whole entry, looked up): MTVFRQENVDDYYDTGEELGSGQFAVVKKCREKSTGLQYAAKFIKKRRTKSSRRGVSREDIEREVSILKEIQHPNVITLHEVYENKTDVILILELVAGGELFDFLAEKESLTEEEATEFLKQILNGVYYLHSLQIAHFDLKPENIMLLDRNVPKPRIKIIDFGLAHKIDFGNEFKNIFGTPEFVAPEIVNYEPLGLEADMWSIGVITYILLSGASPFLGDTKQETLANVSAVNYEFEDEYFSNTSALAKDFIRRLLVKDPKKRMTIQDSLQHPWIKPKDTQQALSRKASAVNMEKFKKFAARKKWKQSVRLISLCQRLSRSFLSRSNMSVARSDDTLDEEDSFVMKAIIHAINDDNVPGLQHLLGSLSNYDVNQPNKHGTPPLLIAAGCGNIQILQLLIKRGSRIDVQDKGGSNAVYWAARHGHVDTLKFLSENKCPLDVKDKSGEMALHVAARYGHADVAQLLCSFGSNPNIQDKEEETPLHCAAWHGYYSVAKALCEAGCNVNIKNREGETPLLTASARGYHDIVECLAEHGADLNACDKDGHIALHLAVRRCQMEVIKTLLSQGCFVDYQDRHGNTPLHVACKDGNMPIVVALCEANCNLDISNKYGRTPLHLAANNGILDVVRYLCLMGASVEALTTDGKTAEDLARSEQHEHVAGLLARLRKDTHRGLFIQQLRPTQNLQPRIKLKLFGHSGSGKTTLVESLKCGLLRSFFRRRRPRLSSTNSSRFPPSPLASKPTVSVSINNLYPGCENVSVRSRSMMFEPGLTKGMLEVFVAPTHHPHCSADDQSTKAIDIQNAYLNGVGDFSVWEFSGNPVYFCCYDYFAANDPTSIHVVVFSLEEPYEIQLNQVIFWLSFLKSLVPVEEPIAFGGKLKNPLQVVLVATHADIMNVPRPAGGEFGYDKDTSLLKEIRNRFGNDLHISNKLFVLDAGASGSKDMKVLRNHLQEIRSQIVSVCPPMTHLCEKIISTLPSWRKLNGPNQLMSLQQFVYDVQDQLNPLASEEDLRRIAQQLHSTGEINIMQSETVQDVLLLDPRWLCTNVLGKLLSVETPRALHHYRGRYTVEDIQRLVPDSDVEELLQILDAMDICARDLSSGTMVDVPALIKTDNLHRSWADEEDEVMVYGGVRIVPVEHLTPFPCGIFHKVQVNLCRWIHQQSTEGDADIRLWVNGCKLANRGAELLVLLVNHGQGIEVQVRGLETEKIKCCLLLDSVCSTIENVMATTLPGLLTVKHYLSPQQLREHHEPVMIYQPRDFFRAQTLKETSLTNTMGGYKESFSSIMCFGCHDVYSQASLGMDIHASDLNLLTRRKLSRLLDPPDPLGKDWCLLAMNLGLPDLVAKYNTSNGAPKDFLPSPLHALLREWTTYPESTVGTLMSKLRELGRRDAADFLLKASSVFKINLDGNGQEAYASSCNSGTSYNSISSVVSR
Please mark 1 if the recorded residual activity is equal to or greater than 90%, and -1 if it falls below.

CNC(=O)C1[C@H]2O[C@@](C)([C@@H]1N)n1c3ccccc3c3c4c(c5c6ccccc6n2c5c31)C(=O)NC4 (stereo partly drawn) ... -1
Cc1ccc(-c2ccc3c(ccc4sc5c(c43)NC[C@@H](C)NC5=O)n2)cn1 ... 1
NC(=O)c1cc(-c2ccnc(NC3CCCCC3)c2)nc(N2CCNCC2)c1 ... 1

**Q:** Quick check, residual activity >= 90%? `Cc1ccc(Sc2cnc(Nc3cccc(Br)n3)s2)cc1C(=O)N1CCN(C(=O)CN)CC1`
**A:** 1

**Q:** Quick check, residual activity >= 90%? `O=C(Nc1nc2cc(C(F)(F)F)cc(NC3CC3)n2n1)c1cccnc1`
**A:** 1

**Q:** Quick check, residual activity >= 90%? `O=C(NCCCNc1nc(Nc2cccc(CN3CCOCC3)c2)ncc1C1CC1)C1CCC1`
**A:** -1

**Q:** Quick check, residual activity >= 90%? `C=CC(=O)N1CCC[C@@H](n2nc(-c3ccc(Oc4ccccc4)cc3)c3c(N)ncnc32)C1`
**A:** 1

**Q:** Quick check, residual activity >= 90%? `CCCCCc1ccc(/C=C/[C@H](O)[C@@H](CO)NC)cc1`
**A:** 1

**Q:** Quick check, residual activity >= 90%? `NC1(c2ccc(-c3nc4ccn5c(=O)[nH]nc5c4cc3-c3ccccc3)cc2)CCC1`
**A:** -1

**Q:** Quick check, residual activity >= 90%? `NC(=O)c1cc2c(-c3cccc(-c4ccccc4)c3)cnc(N)c2s1`
**A:** -1

====

test system: AKT1 (human), P31749 [S473D]; assay: radiometric filter-binding kinase assay; conditions: compound 10.0 µM
Sequence (P31749 whole entry S473D, looked up): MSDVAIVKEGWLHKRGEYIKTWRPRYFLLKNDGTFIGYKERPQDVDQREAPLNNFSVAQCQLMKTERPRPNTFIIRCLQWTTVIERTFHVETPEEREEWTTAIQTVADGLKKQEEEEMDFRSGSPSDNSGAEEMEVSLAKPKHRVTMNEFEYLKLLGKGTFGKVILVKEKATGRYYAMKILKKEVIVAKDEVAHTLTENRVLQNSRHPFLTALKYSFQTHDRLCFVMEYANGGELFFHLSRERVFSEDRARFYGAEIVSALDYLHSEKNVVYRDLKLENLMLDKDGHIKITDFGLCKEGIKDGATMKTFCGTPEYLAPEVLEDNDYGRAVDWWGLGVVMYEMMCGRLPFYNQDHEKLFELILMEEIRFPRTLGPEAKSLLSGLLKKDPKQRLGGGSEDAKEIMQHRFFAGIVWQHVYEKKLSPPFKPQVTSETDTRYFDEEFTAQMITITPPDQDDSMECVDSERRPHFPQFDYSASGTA
quantity measured: residual activity (%)
Quick note: give the figure in %, leave out the unit.

Below, 3 molecules whose answers are already recorded.
NC1(c2ccc(-c3nc4ccn5c(=O)[nH]nc5c4cc3-c3ccccc3)cc2)CCC1 ... 75
N#Cc1c(O)c2c(-c3ccc(-c4ccccc4O)cc3)csc2[nH]c1=O ... 94
CCCC(CCC)C(=O)O ... 99

**Q:** Identify the reported residual activity for the following entry. `O=S(=O)(c1ccc(F)c2nonc12)N1CCN(c2ncc(C(F)(F)F)cc2Cl)CC1`
**A:** 97

**Q:** Identify the reported residual activity for the following entry. `O=C(O)c1cc(N=Nc2ccc(S(=O)(=O)Nc3ccccn3)cc2)ccc1O`
**A:** 106

**Q:** Identify the reported residual activity for the following entry. `NC(=O)c1cc2c(-c3cccc(-c4ccccc4)c3)cnc(N)c2s1`
**A:** 108

**Q:** Identify the reported residual activity for the following entry. CC1=C(CO)C(=O)O[C@@H]([C@@H](C)[C@H]2CC[C@H]3[C@@H]4C[C@H]5O[C@]56[C@@H](O)C=CC(=O)[C@]6(C)C4CC[C@]23C)C1 (stereo not given in full)
**A:** 105

**Q:** Identify the reported residual activity for the following entry. `NS(=O)(=O)OC[C@@H]1C[C@@H](n2ccc3c(N[C@H]4CCc5ccccc54)ncnc32)C[C@@H]1O`
**A:** 119

**Q:** Identify the reported residual activity for the following entry. `NC(=O)Nc1ccc2c(c1)/C(=C/c1cc(-c3cccnc3)c[nH]1)C(=O)N2`
**A:** 62

**Q:** Identify the reported residual activity for the following entry. `Cc1ccc(=O)n(-c2ccccc2)c1`
**A:** 102

====

target: PLK1 (human); test: radiometric filter-binding kinase assay; conditions: compound 0.01 µM
The compounds listed here are annotated with their residual activity.
Quick note: give the figure in %, leave out the unit.

Below, 3 compounds whose answers are already recorded.
CNC(=O)C1[C@H]2O[C@@](C)([C@@H]1N)n1c3ccccc3c3c4c(c5c6ccccc6n2c5c31)C(=O)NC4 (stereo partly specified) ... 68
CNc1nc(-c2ccc3c(N)n[nH]c3c2)cc(N2C[C@@H](C(=O)NC3CCCCC3)CC[C@H]2C)n1 ... 95
COc1ccc(N(C(=O)Nc2c(C)cccc2C)c2cc(Nc3ccc(N4CCN(C)CC4)cc3)ncn2)c(OC)c1 ... 98

**Q:** Identify the reported residual activity for the following entry. `C/C(=C1/C(=O)Nc2ccc(NC(N)=O)cc21)c1ccc[nH]1`
**A:** 82

**Q:** Identify the reported residual activity for the following entry. COc1cc(O)c2c(c1)[C@H]1OC1C[C@H](O)[C@H](O)C(=O)/C=C\C[C@H](C)OC2=O (stereo partly specified)
**A:** 102

**Q:** Identify the reported residual activity for the following entry. `O=C(Nc1nc2cc(C(F)(F)F)cc(NC3CC3)n2n1)c1cccnc1`
**A:** 104

====

test system: AKT1 (human), P31749 [S473D]; test: radiometric filter-binding kinase assay; settings: compound 0.1 µM
The compounds listed here are annotated with their residual activity.
Quick note: give the figure in %, leave out the unit.

Below, 2 compounds whose answers are already recorded.
CCc1cncnc1N1CCN(Cc2nc3cc(C(F)(F)F)ccc3[nH]2)CC1 ... 87
Cc1ccc(Sc2cnc(Nc3cccc(Br)n3)s2)cc1C(=O)N1CCN(C(=O)CN)CC1 ... 105

**Q:** Identify the reported residual activity for the following entry. CNC(=O)C1[C@H]2O[C@@](C)([C@@H]1N)n1c3ccccc3c3c4c(c5c6ccccc6n2c5c31)C(=O)NC4 (some centres undefined)
**A:** 44

**Q:** Identify the reported residual activity for the following entry. `CCn1c(-c2nonc2N)nc2cncc(CNC3CCNCC3)c21`
**A:** 48

**Q:** Identify the reported residual activity for the following entry. `O=C(O)c1ccc(-c2c[nH]c3ncc(-c4ccccc4)cc23)cc1C1CCCC1`
**A:** 104

**Q:** Identify the reported residual activity for the following entry. COc1cc(O)c2c(c1)[C@H]1OC1C[C@H](O)[C@H](O)C(=O)/C=C\C[C@H](C)OC2=O (some centres undefined)
**A:** 124

**Q:** Identify the reported residual activity for the following entry. `O=C(Nc1nc2cc(C(F)(F)F)cc(NC3CC3)n2n1)c1cccnc1`
**A:** 95

**Q:** Identify the reported residual activity for the following entry. `CN(C)C/C=C/C(=O)Nc1cccc(C(=O)Nc2ccc(Nc3nccc(-c4cccnc4)n3)cc2)c1`
**A:** 92

**Q:** Identify the reported residual activity for the following entry. `Cc1cc(NC(=O)c2cccc(NC(=O)/C=C/CN(C)C)c2)ccc1Nc1nccc(-c2cccnc2)n1`
**A:** 102
